Collected Action against LEFCH values appear next to each entry.
# System: LEFCH (Leptochloa chinensis)
# experimental-protocol: Post-emergence action against LEFCH (greenhouse pot test, visual evaluation)
# Format: in vivo
# condition-parameters: dosage 50 g/ha, single herbicide

# compound, unit-label, Action against LEFCH
rows = [
    ("CCCc1ccc2nc(Cl)c(S(=O)(=O)NC(=O)Nc3nc(OC)cc(OC)n3)n2n1 [Compound B12, propyrisulfuron]", "%", 30),
    ("COCc1cccc(C(O)c2nc(OC)cc(OC)n2)c1NS(=O)(=O)C(F)F (centres unmarked) [Compound B15, pyrimisulfan]", "%", 20),
    ("COC(=O)c1nc(C2CC2)nc(N)c1Cl [Compound B3, aminocyclopyrachlor-methyl]", "%", 10),
    ("CS(=O)(=O)c1ccc(C(=O)C2C(=O)CCCC2=O)c(Cl)c1COCC1CCCO1 (centres unmarked) [tefuryltrione]", "%", 20),
    ("CC(C)N(C(=O)n1cnn(-c2ccc(Cl)cc2Cl)c1=O)c1ccc(F)cc1F [Compound B7, ipfencarbazone]", "%", 25),
]
